- runDescription: NCI Yeast Anticancer Drug Screen. Data for the sgs1 mgt1 strain (AID 161)
- runParameters: S. cerevisiae sgs1 mgt1 strain, at 50.0 µM
About 79,000 compounds went through this panel and 15% of them were active in at least one assay; those are over-represented in the sample as a whole. Calls of active or inactive are those of the source. Rule as the data show it: active = growth inhibition above about 70%; inactive = the rest. Where a SMILES comes first, the peptide text is derived from it. [ ]: non-standard residue; d: D form. The star is where a group is joined. ξ: configuration not given here. ξAsp(βξ-Me) = CC(C(=O)O)C(N)C(=O)O; X11 = CC(N*)C1NC(=O)C2CCCCN2C1=O; ξAbu(3ξ-NH2) = CC(N)C(N)C(=O)O; X10 = CCC(C)CCC/C=C/CC(=O)*
Outcome codes: True = active, False = inactive

| molecule | categoryLabel |
| --- | --- |
| CC(=O)CC(=O)NC(C)(C)C | False |
| CC1CCC(C(C)C)C(OC2(c3ccccc3)OC(=O)c3ccccc32)C1 (stereo not given) | False |
| CCOc1cc2c(cc1Cc1ccc3c(c1)OCO3)OCO2 | False |
| CNCCCCCCNc1cc(OC)cc2cccnc12 | False |
| CCC(C)CCC/C=C/CC(=O)NC(CC(=O)O)C(=O)NC(C(=O)NC(CC(=O)O)C(=O)NCC(=O)NC(CC(=O)O)C(=O)NCC(=O)NC(C(=O)NC(C(=O)N1CCCC1C(=O)NC(C)C1NC(=O)C2CCCCN2C1=O)C(C)C)C(C)N)C(C)C(=O)O (stereo not drawn) (X10-D[ξAsp(βξ-Me)]DGDG[ξAbu(3ξ-NH2)]VP-X11; configuration not given here) | False |
| CCN(CC)c1ncnc2c1nc(C)n2Nc1ccccc1 | False |
| C=C1CC(CCCCC2CC(=C)C(=O)O2)OC1=O (stereo not given) | False |
| COC1=C(N(C)C)C(=O)c2ccccc2C1=O | False |
| Clc1ccccc1C=NC1CCCCC1 | False |
| CC(=O)/C=C\c1ccc(-c2ccccc2)cc1 | False |
| COc1c(NC(=O)C(Br)C(Br)C(=O)O)cccc1[N+](=O)[O-] (stereo not given) | False |
| CC(=O)Nc1ccc2cc(-c3ccc(Cl)cc3)c3nnnn3c2n1 | False |
| O=C(CI)Nc1ccc(Cl)c(Cl)c1 | True |
| COc1ccc(C(=O)C[n+]2cc(Br)cc3ccccc32)cc1 | False |
| O=C(CCCCCCCCC(=O)OCCCn1cc(C(=O)NC(=O)OCc2ccccc2)c(=O)[nH]c1=O)OCCCn1cc(C(=O)NC(=O)OCc2ccccc2)c(=O)[nH]c1=O | False |
| CCOC(=O)Nc1nc2c(s1)c([N+](=O)[O-])cn2C | False |
| Cc1c(CCC(C)C)oc2cc3oc(CCC(C)C)c(C)c3cc12 | False |
| CN(C=O)C(C(=O)Nc1cccc2c(OC(=O)C(N(C)C=O)(N(C)C=O)N(C)C=O)c(N=Nc3ccc(S(=O)(=O)Nc4nccs4)cc3)cc(N=Nc3ccc(S(=O)(=O)Nc4nccs4)cc3)c12)(N(C)C=O)N(C)C=O (tested in a mixture with another compound) | False |
| N#CC1CCCC(CBr)C1 (stereo not given) | False |
| CC1(C)COC(c2ccccc2Cl)OC1 | False |
| CC(=O)OC1CC(O)C23COC(O)C1(C)C2CC(O)C1(C)C3C(=O)C(O)C2(C)C(c3ccoc3)CC3OC321 (stereo not given) | False |
| Cc1cc(N)ccc1C(=O)O | False |
| CCOC(=O)C(OC(C)=O)(C(=O)OCC)C(O)c1cccnc1 (stereo not given) | False |
| O=CC1CCCO1 (stereo not given) | False |
| COc1c(NC(=O)c2ccc(Cl)c(Cl)c2)cccc1[N+](=O)[O-] | False |
| S=C(Cc1cccnc1)N1CCOCC1 | False |
| CCCCCCCCCCCCCCCCS(=O)(=O)N/N=C(/c1ccccc1Cl)N1CCOCC1 | False |
| CN1C(=O)c2ccccc2C(O)(c2ccccc2)C1(O)c1ccccc1 (stereo not given) | False |
| Cc1cccc(Cl)c1NC(=O)Nc1ccc(C#N)cc1 | False |
| CCc1nc(N)nc(N)c1-c1ccc(NCCN)c(N)c1 | False |
| NC(=O)NNc1ccccc1 | False |
| CCOC(=O)C1Cc2ccccc2OC1=O (stereo not given) | False |
| CCCCCCCCCCCCCCCc1c(NC(C)(CC)[P+](=O)O)c(=O)n(C)n1C (stereo not given) | False |
| C=CCOCC(CCl)OC(=O)C(C)C (stereo not given) | False |
| O=C(/C=C\c1ccccc1)OCC(=O)c1ccc(-c2ccccc2)cc1 | False |
| Cc1cccc(C(=O)C(O)c2cccc(C)n2)n1 (stereo not given) | False |
| Cn1c(=O)c2c(nc(NCCO)n2Cc2ccccc2)n(C)c1=O | False |
| NCCCCCCCCCCCCN | False |
| C/C(CC(=O)Nc1ccc(Cl)cc1)=N\NC(=O)C[n+]1ccccc1 | False |
| COc1cc2c(cc1C)C1=C(C)C(=O)OC1[C@@H](O)[C@@H]2C (stereo not given in full) | False |
| C=CCC(OCCC)c1ccc2c(c1)OCO2 (stereo not given) | False |
| O=C(N/N=C1\C(=O)N(c2nccs2)C(=O)C(=O)C1c1nc2ccccc2s1)c1ccccc1O (stereo not given) | False |
| O=C(O)c1ccccc1NC(=O)C1CCCCC1 | False |
| OCCC1=CCC1 | False |
| CCOC(=O)c1c[nH]c(=S)[nH]c1=O | False |
